Data origin: patent US20160176956A1

molecular target: T1, Bovine serum albumin (bovine, UniProt P02769 25-607); assay: specificity ELISA, coated antigen, IgG 0.2 uM
T1 construct: unrelated control antigen in the specificity ELISA; also called BSA
T1 sequence (P02769 25-607 limits assumed): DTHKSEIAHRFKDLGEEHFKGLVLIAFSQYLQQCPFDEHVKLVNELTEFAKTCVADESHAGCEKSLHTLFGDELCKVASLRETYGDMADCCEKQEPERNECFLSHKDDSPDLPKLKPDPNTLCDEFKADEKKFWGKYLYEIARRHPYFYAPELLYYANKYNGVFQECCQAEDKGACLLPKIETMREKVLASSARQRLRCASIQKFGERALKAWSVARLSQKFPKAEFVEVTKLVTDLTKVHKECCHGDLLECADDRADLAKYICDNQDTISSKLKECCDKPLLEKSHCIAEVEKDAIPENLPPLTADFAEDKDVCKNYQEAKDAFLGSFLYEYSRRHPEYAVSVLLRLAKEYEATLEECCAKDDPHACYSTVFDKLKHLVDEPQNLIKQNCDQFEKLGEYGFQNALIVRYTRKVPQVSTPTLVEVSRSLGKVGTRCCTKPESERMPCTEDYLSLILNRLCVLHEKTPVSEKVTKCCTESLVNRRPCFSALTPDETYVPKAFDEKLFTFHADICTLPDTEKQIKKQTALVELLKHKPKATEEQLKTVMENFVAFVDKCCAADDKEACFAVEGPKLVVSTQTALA
measure: Signal over background

{"binder": "Antibody 6 (antibody, human IgG1, lambda, V domains shown, germlined clone of NOV0798 (HCDR2-matured NOV0442_VL[Y49,G50,N51Q]); human IgG1; lead antibody; also called NOV0954; NOV954) VH: QVQLVESGGGLVKPGGSLRLSCAASGFTFSSYVVHWVRQAPGKGLEWVGRTRHSDMGYATSYAAPVKGRFTISRDDSKNTLYLQMNSLKTEDTAVYYCARVERSKSGFDNWGQGTLVTVSS VL: QSVLTQPPSVSGAPGQRVTISCTGSSSNIGAGYSVHWYQQLPGTAPKLLIYGQSERPSGVPDRFSGSKSGTSASLAITGLQAEDEADYYCQSWDSSQTLVVFGGGTKLTVLG", "measure": "Signal over background", "observed measurement": 1}
{"binder": "Antibody 5 (antibody, human IgG1, lambda, V domains shown, germlined clone of NOV0787 (HCDR2-matured NOV0442_VL[Y49,G50,N51Q]); human IgG1; lead antibody; also called NOV0951; NOV951) VH: QVQLVESGGGLVKPGGSLRLSCAASGFTFSSYVVHWVRQAPGKGLEWVGRIKRESSSYTTMYAAPVKGRFTISRDDSKNTLYLQMNSLKTEDTAVYYCARVERSKSGFDNWGQGTLVTVSS VL: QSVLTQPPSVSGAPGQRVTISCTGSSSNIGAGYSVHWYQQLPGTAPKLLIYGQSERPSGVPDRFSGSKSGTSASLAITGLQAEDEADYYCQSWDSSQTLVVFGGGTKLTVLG", "measure": "Signal over background", "observed measurement": 1}
{"binder": "Antibody 3 (antibody, human IgG1, lambda, V domains shown, germlined clone of NOV0800 (HCDR2-matured NOV0442_VL[Y49,G50,N51S]); human IgG1; back-up antibody; also called NOV0961; NOV961) VH: QVQLVESGGGLVKPGGSLRLSCAASGFTFSSYVVHWVRQAPGKGLEWVGRIKDHKQGYTTAYAASVKGRFTISRDDSKNTLYLQMNSLKTEDTAVYYCARVERSKSGFDNWGQGTLVTVSS VL: QSVLTQPPSVSGAPGQRVTISCTGSSSNIGAGYSVHWYQQLPGTAPKLLIYGSSERPSGVPDRFSGSKSGTSASLAITGLQAEDEADYYCQSWDSSQTLVVFGGGTKLTVLG", "measure": "Signal over background", "observed measurement": 1}
